assay-overview: Total clearance in mouse at 1 mg/kg, iv measured 2 hrs post dose
Format: ADME, organism-based
stated-conditions: in vivo
measurement-kind: clearance (mL/min/kg)
Please respond with the number in mL/min/kg and leave the unit unwritten.

Give its clearance value. Item: CCCCCCC#Cc1ccc(S(=O)(=O)Nc2cccc(-c3csc(NC(C)=O)n3)c2)cc1 43

###

assay-overview: AUC (0 to 2 hrs) in mouse at 1 mg/kg, iv
Type: ADME, organism-based
Parameters: dose 1 mg/kg, time < 2 hr, route intravenous
stated-conditions: in vivo
measurement-kind: AUC(0-t) at 2 h
Returns: string containing the number followed by the unit.

Give its AUC(0-t) at 2 h value. Item: CCCCCCC#Cc1ccc(S(=O)(=O)Nc2cccc(-c3csc(NC(C)=O)n3)c2)cc1 389 ng·h/mL

###

assay-overview: Half life in mouse liver microsomes at 37 degC
Assay type: ADME, Microsome
measurement-kind: half-life

Give its half-life value. Item: CCCCCCC#Cc1ccc(S(=O)(=O)Nc2cccc(-c3csc(NC(C)=O)n3)c2)cc1 > 45 min

###

Tested on: BXPC-3
assay-overview: Cytotoxicity against gemcitabine-sensitive human BxPC3 cells assessed as cell viability at 10 uM after 48 hrs by trypan blue exclusion assay relative to control
Type: functional
stated-conditions: BXPC-3, 48 h, read-out: Activity
This listing pairs compounds with measured viability at 10 µM.
Please respond with the number in % and leave the unit unwritten.

Answered cases to consult:
# cpd-smiles, viability at 10 µM, %
records = [
    ("CC(=O)Nc1nc(-c2cccc(NS(=O)(=O)c3ccc4ccccc4c3)c2)cs1", 0.6),
    ("CC(=O)Nc1nc(-c2cccc(NS(=O)(=O)c3ccc(C)cc3)c2)cs1", 21.6),
    ("CCCCc1ccc(S(=O)(=O)Nc2cccc(-c3csc(NC(C)=O)n3)c2)cc1", 4.3),
    ("CC(=O)Nc1nc(-c2cccc(NC(=O)c3ccc4ccccc4c3)c2)cs1", 1.5),
]

From here, focus on the item given below.
Identify the measured viability at 10 µM of CCc1ccc(S(=O)(=O)Nc2cccc(-c3csc(NC(C)=O)n3)c2)cc1 for BXPC-3. 21

###

Tested on: BXPC-3
assay-overview: Cytotoxicity against gemcitabine-sensitive human BxPC3 cells assessed as reduction in cell viability after 48 hrs by trypan blue exclusion assay
Format: functional, cell-based
stated-conditions: BXPC-3, 48 h
measurement-kind: pEC50
A value of pEC50 is the negative decimal logarithm of a concentration given in moles per litre.

Give its pEC50 value. Item: CCCCCCC#Cc1ccc(S(=O)(=O)Nc2cccc(-c3csc(NC(C)=O)n3)c2)cc1 6.42

###

System: A-375
assay-overview: Cytotoxicity against vemurafenib-sensitive human A375 cells assessed as reduction in cell viability after 48 hrs by trypan blue exclusion assay
Format: functional, cell-based
stated-conditions: A-375, 48 h
measurement-kind: EC50 (nM)
Please respond with the number in nM and leave the unit unwritten.

Give its EC50 value. Item: CCCCCCC#Cc1ccc(S(=O)(=O)Nc2cccc(-c3csc(NC(C)=O)n3)c2)cc1 560

###

assay-overview: Terminal half life in mouse at 1 mg/kg, iv
Type: ADME, organism-based
stated-conditions: in vivo, read-out: beta t1/2
measurement-kind: half-life (min)
Please respond with the number in min and leave the unit unwritten.

Give its half-life value. Item: CCCCCCC#Cc1ccc(S(=O)(=O)Nc2cccc(-c3csc(NC(C)=O)n3)c2)cc1 47

###

assay-overview: Cytotoxicity against vemurafenib-resistant human A375 R5C3 cells assessed as reduction in cell viability after 48 hrs by trypan blue exclusion assay
Type: functional, cell-based
stated-conditions: A-375, 48 h
measurement-kind: EC50 (nM)
Please respond with the number in nM and leave the unit unwritten.

Give its EC50 value. Item: CCCCCCC#Cc1ccc(S(=O)(=O)Nc2cccc(-c3csc(NC(C)=O)n3)c2)cc1 1320

###

assay-overview: Cytotoxicity against human keratinocytes assessed as cell viability at 10 uM after 48 hrs by trypan blue exclusion assay relative to control
Assay type: cell-based, Keratinocyte
stated-conditions: read-out: Activity
measurement-kind: viability at 48 h, 10 µM
Returns: string containing the number followed by the unit.

Give its viability at 48 h, 10 µM value. Item: CCCCCCC#Cc1ccc(S(=O)(=O)Nc2cccc(-c3csc(NC(C)=O)n3)c2)cc1 93.4%

###

assay-overview: Volume of distribution in mouse at 1 mg/kg, iv measured 2 hrs post dose
Format: ADME, organism-based
stated-conditions: in vivo
measurement-kind: Vd

Give its Vd value. Item: CCCCCCC#Cc1ccc(S(=O)(=O)Nc2cccc(-c3csc(NC(C)=O)n3)c2)cc1 2.91 L/kg

###

This listing pairs compounds with measured viability at 10 µM.
System: K562
assay-overview: Cytotoxicity against imatinib-sensitive human K562 cells assessed as cell viability at 10 uM after 48 hrs by trypan blue exclusion assay relative to control
Format: functional
stated-conditions: K562, 48 h, read-out: Activity
Please respond with the number in % and leave the unit unwritten.

Answered cases to consult:
# cpd-smiles, units-text, endpoint-result
records = [
    ("CC(=O)Nc1nc(-c2cccc(NC(=O)c3ccc4ccccc4c3)c2)cs1", "%", 53.9),
    ("CC(=O)Nc1nc(-c2cccc(NS(=O)(=O)c3ccc(C(C)(C)C)cc3)c2)cs1", "%", 19.4),
    ("CCCCCCC#Cc1ccc(S(=O)(=O)Nc2cccc(-c3csc(NC(C)=O)n3)c2)cc1", "%", 0.6),
    ("CCc1ccc(S(=O)(=O)Nc2cccc(-c3csc(NC(C)=O)n3)c2)cc1", "%", 12.8),
    ("CCCCc1ccc(S(=O)(=O)Nc2cccc(-c3csc(NC(C)=O)n3)c2)cc1", "%", 51.6),
    ("CCCCCc1ccc(S(=O)(=O)Nc2cccc(-c3csc(NC(C)=O)n3)c2)cc1", "%", 51),
    ("CCCCC#Cc1ccc(S(=O)(=O)Nc2cccc(-c3csc(NC(C)=O)n3)c2)cc1", "%", 26.9),
    ("CC(=O)Nc1nc(-c2cccc(NS(=O)(=O)c3ccc(I)cc3)c2)cs1", "%", 15),
]

Give its viability at 10 µM value. Item: CC(=O)Nc1nc(-c2cccc(NS(=O)(=O)c3ccc(C)cc3)c2)cs1 15.3

Give its viability at 10 µM value. Item: CC(=O)Nc1nc(-c2cccc(NS(=O)(=O)c3ccc4ccccc4c3)c2)cs1 31
